Listed next: entries and their corresponding TGI.
# Test system: M19-MEL melanoma
# assay text: NCI tumour cell line growth inhibition, 48 h
attribute measured: TGI

{"molecule": "C[C@H]1[C@H](C)CC[C@]2(C(=O)O)CCC3(COC(=O)/C=C/c4ccc(O)cc4)C(=CCC4[C@@]5(C)CC[C@H](O)C(C)(C)C5CC[C@]43C)[C@H]12 (stereo not given in full)", "attribute measured": "TGI", "readout value": "> 100 µM"}
{"molecule": "CC(/C=C1\\CCC(CN(C)C)C1=O)c1cccc(Br)c1 (stereo not given)", "attribute measured": "TGI", "readout value": "50.2 µM"}
{"molecule": "CCOC(=O)C1=C(C)C2C3C(=O)OC(=O)C3C1(C)C1C(=O)OC(=O)C21 (stereo not given)", "attribute measured": "TGI", "readout value": "> 100 µM"}
{"molecule": "CCC1=CCC(P(=O)(c2ccccc2)c2ccccc2)CC1C (stereo not given)", "attribute measured": "TGI", "readout value": "> 100 µM"}
{"molecule": "CCCCCC1CC(C(C)=O)CN1c1ccc(F)cc1 (stereo not given)", "attribute measured": "TGI", "readout value": "> 100 µM"}

====

Listed next: entries and their corresponding TGI.
# System: SW-620 colon
# assay text: NCI tumour cell line growth inhibition, 48 h

{"compound": "CCOC(=O)CN1C(=O)c2c(NC(=O)C(=O)O)cccc2S1(=O)=O", "qualifier sign": ">", "TGI [µM]": 100}
{"compound": "O=C(/C=C/c1ccc(Cl)cc1)c1nc2ccccc2[nH]1", "qualifier sign": "=", "TGI [µM]": 53.1}
{"compound": "Cn1c2ccccc2c(=NNc2ccc(S(=O)(=O)N=C(N)N)cc2)c2ccccc21", "qualifier sign": "=", "TGI [µM]": 21.1}
{"compound": "CC(C)OP(=O)(OC(C)C)/C(=N/Nc1ccc([N+](=O)[O-])cc1)NNC(=O)c1ccccc1", "qualifier sign": ">", "TGI [µM]": 100}
{"compound": "Nc1n[nH]c(N)n1", "qualifier sign": ">", "TGI [µM]": 10000}
{"compound": "CC(C)C1CCC(=O)CC1CCCCC1CC(=O)CC1O[Si](C)(C)C(C)(C)C (stereo not given)", "qualifier sign": ">", "TGI [µM]": 26.5}
{"compound": "CCN(CC)CCCNc1nccc2c(C)c3[nH]c4ccncc4c(=O)c3cc12", "qualifier sign": "=", "TGI [µM]": 16.1}
{"compound": "C[N+]1(C)C/C(=C\\C=C\\c2ccccc2)C(=O)/C(=C/C=C/c2ccccc2)C1", "qualifier sign": "=", "TGI [µM]": 41.5}
{"compound": "Cc1cc(S(=O)(=O)Nc2nnc3c(Cl)cc(C(F)(F)F)cn23)c(S)cc1Cl", "qualifier sign": ">", "TGI [µM]": 100}
{"compound": "CC1=NC(=O)CNN1C1=NNC2(C(=O)N1)c1ccccc1-c1ccccc12", "qualifier sign": ">", "TGI [µM]": 100}

====

# Test system: A498 renal
# assay text: NCI tumour cell line growth inhibition, 48 h
Listed next: entries and their corresponding TGI.

{"molecule": "COc1ccc2[nH]cc(Cc3c[nH]c4ccc(OC)cc34)c2c1", "TGI": "14.5 µM"}
{"molecule": "NCCNc1ccc(NCCN)c2c1C(=O)c1c(O)ccc(O)c1C2=O", "TGI": "0.37 µM"}
{"molecule": "COC1=C(OC)C(=O)C(C/C=C/c2c(Cl)nc3sccn23)=C(C)C1=O", "TGI": "48.2 µM"}
{"molecule": "CC(C)(C)C1CCC2c3c([nH]c4ccccc34)C3C(=O)N(c4cc(Cl)ccc4Cl)C(=O)C3C2C1 (stereo unspecified)", "TGI": "> 100 µM"}
{"molecule": "CN(CCCCCCCCNc1ccnc2ccccc12)Cc1ccc(-c2ccc(-c3ccc(C#N)cc3)s2)cc1", "TGI": "2.6 µM"}
{"molecule": "COc1ccc(OC)c(CCc2ccccc2CC(=O)O)c1", "TGI": "> 100 µM"}
{"molecule": "CCCCCC1CC(C(C)=O)CN1c1ccc(F)cc1 (stereo unspecified)", "TGI": "> 100 µM"}
{"molecule": "COC(=O)/C=C(C)/C=C/c1c(C)c(C(C)=O)c(C)n1C", "TGI": "> 100 µM"}
{"molecule": "COC(=O)/C(=N\\Nc1nc(=S)[nH]n1N)C(C#N)c1ccc(Cl)cc1 (stereo unspecified)", "TGI": "> 100 µM"}
{"molecule": "CCCn1cc(/C=N\\N=C2\\C(=O)Nc3ccc(C)cc32)c2ccccc21", "TGI": "7.5 µM"}
{"molecule": "Cc1cc(N(CCC#N)CCC#N)ccc1/C=C(\\N=[N+]=[N-])C(=O)NC(=O)COc1ccccc1", "TGI": "> 100 µM"}

====

Listed next: entries and their corresponding TGI.
# Test system: NCI-H522 lung
# assay text: NCI tumour cell line growth inhibition, 48 h
attribute measured: TGI

{"molecule": "Cc1ccc(C(CCO)CCO)nc1", "attribute measured": "TGI", "readout value": "> 100 µM"}
{"molecule": "O=C1NC(NNc2ccccc2)=N/C1=C\\c1ccco1", "attribute measured": "TGI", "readout value": "27.8 µM"}
{"molecule": "Cc1c(C(=O)/C=C/c2ccc(Cl)cc2)nnn1-c1ccnc2c(C(F)(F)F)cccc12", "attribute measured": "TGI", "readout value": "> 100 µM"}
{"molecule": "O=C(O)C1Cc2[nH]c3ccccc3c2C2CCCC12 (stereo unspecified)", "attribute measured": "TGI", "readout value": "> 100 µM"}
{"molecule": "Clc1ccc2c(c1)CC1C[N+]3=C(CCCCC3)C1=C2 (stereo unspecified)", "attribute measured": "TGI", "readout value": "> 100 µM"}
{"molecule": "Oc1ccccc1CNCc1ccccc1O", "attribute measured": "TGI", "readout value": "> 100 µM"}
{"molecule": "Cc1cc(C(=O)CC(Cl)=C(Cl)Cl)c(Cl)cc1Cl", "attribute measured": "TGI", "readout value": "69.4 µM"}
{"molecule": "CCn1c(=O)c2c3ccc(O)cc3[nH]c2c2ccc(O)cc21", "attribute measured": "TGI", "readout value": "> 100 µM"}
{"molecule": "O=C1/C=C/[C@@H](O)[C@@H]2C[C@@H](O)C[C@H]2/C=C/CCC[C@H](CCc2ccc(NC(=S)Nc3ccc4c(c3)C(=O)OC43c4ccc(O)cc4Oc4cc(O)ccc43)cc2)O1", "attribute measured": "TGI", "readout value": "5.24 µM"}
{"molecule": "COc1cc(C(=O)c2cnc(-c3ccc4cc[nH]c4c3)[nH]2)cc(OC)c1OC", "attribute measured": "TGI", "readout value": "0.0913 µM"}
{"molecule": "Cc1cc(S(=O)(=O)Nc2nnc3c(Cl)cc(C(F)(F)F)cn23)c(S)cc1Cl", "attribute measured": "TGI", "readout value": "> 100 µM"}

====

# System: HOP-18 NSCLC
# assay text: NCI tumour cell line growth inhibition, 48 h
Listed next: entries and their corresponding TGI.
attribute measured: TGI

{"compound": "Cc1ccc(-c2nc3ccccc3c(=O)n2NC2OC(CO)C(O)C(O)C2O)cc1 (stereo not drawn)", "system under test": "HOP-18 NSCLC", "readout value": "> 100 µM"}
{"compound": "C[C@H]1[C@H](C)CC[C@]2(C(=O)O)CCC3(COC(=O)/C=C/c4ccc(O)cc4)C(=CCC4[C@@]5(C)CC[C@H](O)C(C)(C)C5CC[C@]43C)[C@H]12 (stereo partly drawn)", "system under test": "HOP-18 NSCLC", "readout value": "33.9 µM"}
{"compound": "O=[N+]([O-])c1cc(C(F)(F)F)cc2n[se]nc12", "system under test": "HOP-18 NSCLC", "readout value": "8.96 µM"}
{"compound": "CC(Oc1ccc2c(=O)cc(-c3ccccc3)oc2c1)C(=O)O (stereo not drawn)", "system under test": "HOP-18 NSCLC", "readout value": "> 100 µM"}
{"compound": "O=C1CS(=O)c2ccccc2N1 (stereo not drawn)", "system under test": "HOP-18 NSCLC", "readout value": "> 100 µM"}
{"compound": "COc1ccc(C(=O)Nc2ccn(CCOC(=O)c3ccc(OC)cc3)c(=O)n2)cc1", "system under test": "HOP-18 NSCLC", "readout value": "> 100 µM"}
{"compound": "O=C1C(c2ccccc2)=[N+]([O-])c2cc([N+](=O)[O-])ccc21", "system under test": "HOP-18 NSCLC", "readout value": "> 100 µM"}
{"compound": "CCCCCCCC(=O)OC(COC(=O)Cc1ccccc1)COC(=O)C(C)(C)C (stereo not drawn)", "system under test": "HOP-18 NSCLC", "readout value": "> 100 µM"}
{"compound": "CC(=O)CCn1[nH]c(=O)c(Cl)c(Cl)c1=O", "system under test": "HOP-18 NSCLC", "readout value": "> 100 µM"}
{"compound": "CCC1=CCC(P(=O)(c2ccccc2)c2ccccc2)CC1C (stereo not drawn)", "system under test": "HOP-18 NSCLC", "readout value": "> 100 µM"}
{"compound": "CC(O)(c1ccc(OCCC[N+](C)(C)C)cc1)C(C)(O)c1ccc(OCCC[N+](C)(C)C)cc1 (stereo not drawn)", "system under test": "HOP-18 NSCLC", "readout value": "> 100 µM"}
{"compound": "C[N+]1(C)C/C(=C\\C=C\\c2ccccc2)C(=O)/C(=C/C=C/c2ccccc2)C1", "system under test": "HOP-18 NSCLC", "readout value": "> 61.1 µM"}
{"compound": "NCCCC(N)(C(=O)O)C(F)F (stereo not drawn)", "system under test": "HOP-18 NSCLC", "readout value": "> 50 µM"}
